Numbers sourced from patent US10940139B2.

# Target System: UniProtKB P61586
# Sequence (P61586 whole entry): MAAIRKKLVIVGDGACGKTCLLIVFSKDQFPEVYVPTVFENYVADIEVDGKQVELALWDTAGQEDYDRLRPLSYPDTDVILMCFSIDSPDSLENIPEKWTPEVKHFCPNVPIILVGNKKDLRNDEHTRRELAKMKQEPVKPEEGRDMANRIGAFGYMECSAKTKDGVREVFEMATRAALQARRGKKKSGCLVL
# Assay Explanation: Rho inhibition assay (labeled GTP)
# Format: binding
# Test Parameters: read-out: Rho-A % Inh.
Listed compounds paired with reported inhibition at 20 µM
Property Name: inhibition at 20 µM

INSERT INTO measurements (compound, property_name, result) VALUES
  ('Cc1ccc(OC2CCCC2)c(-c2csc3c(O)nc(-c4ccccn4)nc23)c1 [drawing 3716]', 'inhibition at 20 µM', '51 to 75%'),
  ('Cn1cnc(-c2nc(O)c3c(-c4ccccc4)c(-c4ccncc4)sc3n2)c1 [drawing 3846]', 'inhibition at 20 µM', '0%'),
  ('N#Cc1cccc(N2CCN(C(=O)c3csc4c(O)nc(-c5ccccn5)nc34)CC2)c1 [drawing 3644]', 'inhibition at 20 µM', '51 to 75%'),
  ('O=C(c1csc2c(O)nc(-c3ccccn3)nc12)N1CCOC(c2ccccc2)C1 (centres unmarked) [drawing 3655]', 'inhibition at 20 µM', '51 to 75%'),
  ('NC(=O)C1CCCN1C(=O)c1cccc(-c2cc3nc(N)nc(O)c3s2)c1 (centres unmarked) [drawing 3862]', 'inhibition at 20 µM', '0%'),
  ('O=C(c1csc2c(O)nc(-c3ccccn3)nc12)N1CCOC(c2cccc(F)c2)C1 (centres unmarked) [drawing 3630]', 'inhibition at 20 µM', '1 to 25%'),
  ('O=C(NCCc1cccnc1)c1csc2nc(-c3ccccn3)nc(N3CCOCC3)c12 [drawing 3633]', 'inhibition at 20 µM', '51 to 75%'),
  ('Cn1cnc(-c2nc(O)c3scc(-c4cccc(OC(F)(F)F)c4)c3n2)c1 [drawing 3924]', 'inhibition at 20 µM', '25 to 50%');
